Below is a list of entries, each paired with its recorded IC50 value.
- subject of test: KDM5A (Homo sapiens)
- Construct: C-terminal FLAG-tagged KDM5A^1-1090 was purchased from BPS Biosciences; FLAG (C); purchased BPS Biosciences
- Sequence (P29375 1-1090): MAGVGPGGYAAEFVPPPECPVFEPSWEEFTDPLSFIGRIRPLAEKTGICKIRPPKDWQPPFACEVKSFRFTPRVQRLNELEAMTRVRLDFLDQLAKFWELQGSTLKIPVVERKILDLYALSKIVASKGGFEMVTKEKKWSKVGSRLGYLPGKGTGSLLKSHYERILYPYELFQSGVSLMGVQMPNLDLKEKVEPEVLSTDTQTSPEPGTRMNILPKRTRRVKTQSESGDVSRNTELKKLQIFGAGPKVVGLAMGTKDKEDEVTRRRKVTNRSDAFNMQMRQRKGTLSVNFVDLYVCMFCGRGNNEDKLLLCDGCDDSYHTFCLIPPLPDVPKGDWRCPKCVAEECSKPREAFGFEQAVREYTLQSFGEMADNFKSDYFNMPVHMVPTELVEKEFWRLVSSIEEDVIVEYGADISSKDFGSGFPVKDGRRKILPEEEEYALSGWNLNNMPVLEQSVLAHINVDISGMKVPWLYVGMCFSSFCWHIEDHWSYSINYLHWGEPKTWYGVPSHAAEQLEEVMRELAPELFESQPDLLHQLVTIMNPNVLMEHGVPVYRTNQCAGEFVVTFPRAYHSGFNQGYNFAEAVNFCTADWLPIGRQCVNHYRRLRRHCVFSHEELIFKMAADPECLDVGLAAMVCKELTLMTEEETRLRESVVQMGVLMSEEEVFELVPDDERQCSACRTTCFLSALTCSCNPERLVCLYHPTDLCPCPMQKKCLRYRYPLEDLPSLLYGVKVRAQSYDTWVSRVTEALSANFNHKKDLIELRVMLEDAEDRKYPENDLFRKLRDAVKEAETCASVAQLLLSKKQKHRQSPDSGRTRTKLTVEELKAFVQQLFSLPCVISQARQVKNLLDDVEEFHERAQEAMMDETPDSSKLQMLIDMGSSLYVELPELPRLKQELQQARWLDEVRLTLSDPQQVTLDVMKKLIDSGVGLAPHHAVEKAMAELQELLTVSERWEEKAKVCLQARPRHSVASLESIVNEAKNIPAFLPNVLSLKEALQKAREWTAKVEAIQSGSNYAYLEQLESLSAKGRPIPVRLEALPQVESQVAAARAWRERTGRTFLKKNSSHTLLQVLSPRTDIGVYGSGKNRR
- protocol text: KDM5A Assay (SAMDI mass spectrometry demethylase assay)
- Format: biochemical
- stated conditions: C-terminal FLAG-tagged KDM5A 1-1090; class symbols; read-out: 5A IC50

// solved cases for IC50 follow
Recorded result, CN1CCN(CCn2cc(-c3ccccc3)c(Nc3cnccc3C(=O)O)n2)CC1 , IC50: 10 to 100 µM

Recorded result, Cc1ccc(-n2cc(Nc3cnccc3C(=O)O)c(C)n2)cc1 , IC50: 0.001 to 0.1 µM

Recorded result, O=C(O)c1ccncc1Nc1c(-c2ccccc2)cnn1[C@H]1CNc2ccccc2C1 , IC50: 10 to 100 µM

Recorded result, O=C(O)c1ccncc1Nc1nn(CCN2CCC(F)(F)CC2)cc1-c1ccccc1 , IC50: 0.001 to 0.1 µM

Recorded result, Cc1nn(C2CCN(C3CCC3)CC2)cc1Nc1cnccc1C(=O)O , IC50: 0.1 to 1 µM

Recorded result, CC(C)n1nc(-c2ccccc2)cc1Nc1cnccc1C(=O)O , IC50: 0.1 to 1 µM

Recorded result, Cc1nn(C2CCN(C3CN(C)C3)CC2)cc1Nc1cnccc1C(=O)O , IC50: 0.1 to 1 µM

Recorded result, Cc1c(Nc2cnccc2C(=O)O)cnn1C1CCN(c2ccccc2)CC1 , IC50: 1 to 10 µM

More entries:
Recorded result, O=C(O)c1ccncc1Nc1cc(-c2ccccc2)nn1-c1ccncc1 , IC50: 1 to 10 µM

Recorded result, Cc1nn(C2CCN(CC(F)(F)F)CC2)cc1Nc1cnccc1C(=O)O , IC50: 0.1 to 1 µM

Recorded result, O=C(O)c1ccncc1Nc1nn(CCN2CCC(F)(F)CC2)cc1-c1ccc(F)cc1 , IC50: 0.001 to 0.1 µM

Recorded result, Cc1nn(C2CCCN(C)CC2)cc1Nc1cnccc1C(=O)O (stereo not shown) , IC50: 10 to 100 µM

Recorded result, Cc1c(Nc2cnccc2C(=O)O)cnn1Cc1ccccc1 , IC50: 0.1 to 1 µM

Recorded result, Cc1nn(CCN(C)C)cc1Nc1cnccc1C(=O)O , IC50: 0.1 to 1 µM

Recorded result, CN(C)CCc1cn(-c2ccccc2)nc1Nc1cnccc1C(=O)O , IC50: 1 to 10 µM

Recorded result, O=C(O)c1ccncc1Nc1cnn(C2CCN(Cc3ccccc3)C2)c1-c1ccccc1 (stereo not shown) , IC50: 0.1 to 1 µM

Recorded result, O=C(O)c1ccncc1Nc1nn(C2CCNCC2)cc1-c1ccccc1 , IC50: 0.001 to 0.1 µM

Recorded result, Cc1nn(C2CCN(C(C)C)CC2)cc1Nc1cnccc1C(=O)O , IC50: 0.1 to 1 µM

Recorded result, Cc1nn([C@H]2CC[C@@H](N)CC2)cc1Nc1cnccc1C(=O)O , IC50: 0.001 to 0.1 µM
